Source: PubChem BioAssay AID1996

- CONDITION_DESCRIPTION: buffer; pH 7.4; 200.0 µM
ATTRIBUTE_MEASURED: solubility kinetic

Q. # lookup: solubility kinetic of Cc1ccc(-c2ocnc2C(=O)N2CCOCC2)cc1
A. > 40.8 µg/mL

Q. Same lookup for CN(C)/C=N/c1nccc(-c2cccs2)n1 , please.
A. > 34.8 µg/mL

Q. What about O=C1c2ccc([N+](=O)[O-])cc2C(=O)N1Cc1cccnc1 ?
A. > 42.5 µg/mL

Q. Do the same for CCNC(=O)c1cccc(NC(=O)C2CC(=O)N(CCc3ccccc3)C2)c1 (stereo not drawn) please
A. > 56.9 µg/mL

Q. And then Cc1ccc(S(=O)(=O)N(C)CC(=O)NNC(=O)CCNS(=O)(=O)c2cccc(C)c2)cc1 , what is it?
A. > 72.4 µg/mL

Q. Next compound up: Cc1cc(NC(=O)CSc2ncccc2C(=O)O)no1
A. > 44 µg/mL

Q. // same read-out, input: CCN(CC)CC(=O)Nn1c(C)nc2c(ncn2-c2ccccc2)c1=O
A. > 53.2 µg/mL

Q. Next compound: COc1cccc(NC(=O)C(=O)NCCCn2ccnc2)c1
A. 42.2 µg/mL

Q. Repeat with O=C(OCN1C(=O)c2ccccc2C1=O)c1cccc(OC(F)F)c1
A. 0.9 µg/mL

Q. Next record, please: C=CCNC(=O)C1=NN(c2c(F)c(F)cc(F)c2F)C(=O)CC1
A. > 49.4 µg/mL

Q. Item: O=C(CSc1nnc(Nc2ccccc2F)s1)NCC1CCCO1 (stereo not drawn)
A. > 55.3 µg/mL

Q. Next entry: O=C(c1ccc(S(=O)(=O)Nc2ccccc2Cl)cc1)N1CCCC1
A. > 54.7 µg/mL

Q. Next record, please: COC(=O)c1cn(CC(=O)Nc2ccccc2C)c2ccccc12
A. 0.4 µg/mL

Q. And what about the compound Nc1ccccc1C(=O)NCc1ccc(F)cc1 ?
A. > 36.6 µg/mL

Q. // next record CC1CC(C)CN(C(=O)c2ccc(C#N)cc2)C1 (stereo not drawn)
A. > 36.3 µg/mL

Q. Now this one: Cc1ccc(C)c(NC(=O)CN(C)C(=O)c2sccc2C)c1
A. > 47.5 µg/mL

Q. Now try Cc1ccc2nc(-c3ccc(Br)cc3)cn2c1 .
A. < 0.3 µg/mL

Q. Another compound: COc1ccc(NC(=S)N2CCN(c3ccccc3)CC2)c(OC)c1
A. 2.6 µg/mL
